- PROTOCOL NOTES: qHTS assay to identify small molecule agonists of the constitutive androstane receptor (CAR) signaling pathway - cell viability counter screen (AID 1224836); note: nearly all actives have a fitted effect of over 45% in size
- RUN CONDITIONS: HepG2-CYP2B6-hCAR viability, CellTiter-Fluor, 23 h, PK11195 added to every well; series mostly up to 92.4 µM
Records with an inconclusive call do not appear. Calls of active or inactive are those of the source. Calls come from the whole dose curve; as a rule, active = well fitted cell-killing curve with a large enough effect in the repeat runs; inconclusive = weak or mixed curves, or effect the other way; inactive = flat fitted curve, though single readings scatter.
PROPERTY NAME: viability change, negative = cytotoxic

# annotated cases, reported viability change, negative = cytotoxic shown
CCCCCCCCc1ccc(S(=O)(=O)O)cc1; inactive
CCNCCO; inactive
CCCNC(C)(C)COC(=O)c1ccccc1; inactive
O=Cc1ccc(O)c(O)c1O; inactive
CCOC(=O)CS; inactive

Asked: Bench note: what viability change, negative = cytotoxic did COC(=O)C(C)O (centres undefined) show?
Given back: inactive

Asked: Bench note: what viability change, negative = cytotoxic did CCCNC(C)C(=O)Nc1c(C)csc1C(=O)OC (centres undefined) show?
Given back: inactive

Asked: Bench note: what viability change, negative = cytotoxic did CC(=O)OC1C2(C)CCC(C2)C1(C)C (centres undefined) show?
Given back: inactive

Asked: Bench note: what viability change, negative = cytotoxic did COC(C)CCO (centres undefined) show?
Given back: inactive

Asked: Bench note: what viability change, negative = cytotoxic did CC(C)=CCC[C@](C)(O)[C@@H]1CC=C(C)CC1 show?
Given back: inactive

Asked: Bench note: what viability change, negative = cytotoxic did CCCCCCCCCC/C=C/C#N show?
Given back: inactive

Asked: Bench note: what viability change, negative = cytotoxic did O=S(=O)(O)C(F)(F)F show?
Given back: inactive

Asked: Bench note: what viability change, negative = cytotoxic did O=C(CCCl)NCc1ccccc1 show?
Given back: inactive

Asked: Bench note: what viability change, negative = cytotoxic did CC1(C)C(=O)N(Cl)C(=O)N1Br show?
Given back: inactive

Asked: Bench note: what viability change, negative = cytotoxic did C[C@]12CCC(=O)C=C1CC[C@@H]1[C@@H]2CC[C@@]2(C)[C@H]1CC[C@]2(O)C(=O)CO show?
Given back: inactive

Asked: Bench note: what viability change, negative = cytotoxic did O=C1CCC(C2CCCCC2)CC1 show?
Given back: inactive

Asked: Bench note: what viability change, negative = cytotoxic did CC(=O)Nc1ccc(C)c(Cl)c1 show?
Given back: inactive

Asked: Bench note: what viability change, negative = cytotoxic did CCOc1ccc(NC(N)=O)cc1 show?
Given back: inactive

Asked: Bench note: what viability change, negative = cytotoxic did C1CSCCS1 show?
Given back: inactive

Asked: Bench note: what viability change, negative = cytotoxic did C[C@]12C(=O)OC(=O)[C@H]1[C@H]1C=C[C@@H]2C1 show?
Given back: inactive

Asked: Bench note: what viability change, negative = cytotoxic did CCCCCCn1c(=O)c2c(ncn2C)n(C)c1=O show?
Given back: inactive
